Let's look at some compounds and their measured pKi.
# system: 5-HT2A (Homo sapiens)
# Sequence (P28223 whole entry, looked up): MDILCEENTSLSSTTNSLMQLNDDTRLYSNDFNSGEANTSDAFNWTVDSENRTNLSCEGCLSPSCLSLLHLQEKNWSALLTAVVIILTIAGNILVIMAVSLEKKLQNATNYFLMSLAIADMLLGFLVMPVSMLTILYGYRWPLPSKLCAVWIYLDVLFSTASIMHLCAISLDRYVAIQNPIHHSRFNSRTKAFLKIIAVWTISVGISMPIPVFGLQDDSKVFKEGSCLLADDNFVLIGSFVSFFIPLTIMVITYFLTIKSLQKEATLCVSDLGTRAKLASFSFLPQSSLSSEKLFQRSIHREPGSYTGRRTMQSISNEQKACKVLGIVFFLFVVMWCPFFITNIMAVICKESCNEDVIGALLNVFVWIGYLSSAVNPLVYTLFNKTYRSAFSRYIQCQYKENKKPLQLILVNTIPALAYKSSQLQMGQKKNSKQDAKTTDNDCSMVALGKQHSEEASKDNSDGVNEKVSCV
# assayOverview: NIMH PDSP radioligand competition binding, 5-HT2A
# reply with the number alone; pKi is -log10 of concentration in mol/L

Answered cases to consult:
C=CCN(CC=C)CCc1c[nH]c2c(CC)cccc12 [7-Et-DALT, 7-ethyl-N,N-diallyltryptamine]; 5.82
C=CCN(CC=C)CCc1c[nH]c2cccc(OC(C)=O)c12 [4-AcO-DALT, 4-acetoxy-N,N-diallyltryptamine]; 6.25
C=CCN(CC=C)CCc1c(C)[nH]c2ccc(F)cc12 [5-F-2-Me-DALT, 5-fluoro-2-methyl-N,N-diallyltryptamine]; 6.18
C=CCN(CC=C)CCc1c[nH]c2cccc(O)c12 [4-HO-DALT, 4-hydroxy-N,N-diallyltryptamine]; 6.19
C=CCN(CC=C)CCc1c(C)[nH]c2ccc(OC)cc12 [5-MeO-2-Me-DALT, 5-methoxy-2-methyl-N,N-diallyltryptamine]; 5.94

Now look at this one.
Challenge: Reported pKi for C=CCN(CC=C)CCc1c(-c2ccccc2)[nH]c2ccccc12 [2-Ph-DALT, 2-phenyl-N,N-diallyltryptamine] : what is it?
Response given: 7.89

###

In what follows, each item is paired with its Ki for H3 (Cavia porcellus, UniProt Q9JI35).

Reference set, count: 5
C=CCN(CC=C)CCc1c(C)[nH]c2ccc(F)cc12 [5-F-2-Me-DALT, 5-fluoro-2-methyl-N,N-diallyltryptamine]; 1.4 µM
C=CCN(CC=C)CCc1c(-c2ccccc2)[nH]c2ccccc12 [2-Ph-DALT, 2-phenyl-N,N-diallyltryptamine]; > 10 µM
C=CCN(CC=C)CCc1c(C)[nH]c2ccc(OC)cc12 [5-MeO-2-Me-DALT, 5-methoxy-2-methyl-N,N-diallyltryptamine]; 1.13 µM
C=CCN(CC=C)CCc1c[nH]c2cccc(OC(C)=O)c12 [4-AcO-DALT, 4-acetoxy-N,N-diallyltryptamine]; > 10 µM
C=CCN(CC=C)CCc1c[nH]c2cccc(O)c12 [4-HO-DALT, 4-hydroxy-N,N-diallyltryptamine]; > 10 µM

Challenge: Request - read-out Ki | tested on H3 (Cavia porcellus, UniProt Q9JI35) | compound C=CCN(CC=C)CCc1c[nH]c2c(CC)cccc12 [7-Et-DALT, 7-ethyl-N,N-diallyltryptamine]
Response given: > 10 µM

###

# system: D4 (Homo sapiens)
# Sequence (P21917 whole entry): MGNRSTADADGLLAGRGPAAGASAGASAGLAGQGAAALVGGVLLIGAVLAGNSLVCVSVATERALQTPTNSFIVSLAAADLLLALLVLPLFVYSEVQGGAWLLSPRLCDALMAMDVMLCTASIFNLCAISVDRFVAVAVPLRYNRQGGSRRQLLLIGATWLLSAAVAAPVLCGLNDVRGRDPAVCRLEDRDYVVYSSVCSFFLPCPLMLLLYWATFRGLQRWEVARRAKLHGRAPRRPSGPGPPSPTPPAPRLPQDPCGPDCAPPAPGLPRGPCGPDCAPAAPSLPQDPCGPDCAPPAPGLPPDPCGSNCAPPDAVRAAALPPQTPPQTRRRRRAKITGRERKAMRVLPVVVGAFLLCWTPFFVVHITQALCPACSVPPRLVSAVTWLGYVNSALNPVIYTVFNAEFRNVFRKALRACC
# assayOverview: NIMH PDSP radioligand competition binding, D4
# testParameters: Binding Affinity (Ki, nM), [3H]N-methylspiperone, cloned human receptor
Quick reference: Ki of the listed items.

C=CCN(CC=C)CCc1c(C)[nH]c2ccc(OC)cc12; > 10000 nM

Challenge: Observed Ki on D4 (Homo sapiens) for C=CCN(CC=C)CCc1c[nH]c2cccc(O)c12 [4-HO-DALT, 4-hydroxy-N,N-diallyltryptamine] , please.
Response given: > 10000 nM

Challenge: Find the measured Ki: item `C=CCN(CC=C)CCc1c[nH]c2cccc(OC(C)=O)c12` , target or system D4 (Homo sapiens).
Response given: > 10000 nM

Challenge: What reported Ki corresponds to `C=CCN(CC=C)CCc1c(-c2ccccc2)[nH]c2ccccc12` on D4 (Homo sapiens)?
Response given: 1000 nM

Challenge: Can you look up Ki on D4 (Homo sapiens) for `C=CCN(CC=C)CCc1c[nH]c2c(CC)cccc12` ?
Response given: > 10000 nM

Challenge: Hello, I am looking for reported Ki with D4 (Homo sapiens) for `C=CCN(CC=C)CCc1c(C)[nH]c2ccc(F)cc12` . Could you help?
Response given: > 10000 nM
